Assay: chemical genetic growth profiling, strain panel (AID 1159580);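 further: tested at 20 µM; growth read once vehicle control cultures reached saturation at 30 °C; 1 = growth at the plate median or of vehicle wells; lower values mean less growth of the strain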
Details: S. cerevisiae deletion strains, growth OD, locus YKL067W, strain YNK1, stronger effect = lower value
Hit rate of the full screen: of about 5,500 compounds, about 2,000 (36%) were called active. Inconclusive results (about 18%) are left out. This is one part of the list.
Threshold 0.9. normalized growth below it: MET. normalized growth at it or above: NOT MET.

>>> print(df.to_string())
                           smiles_structure      cat
0       O=C(c1csc(-c2ccc(Cl)cc2)c1)N1CCCCC1      MET
1   Cc1cc(C)cc(Sc2ccc3nnc(-c4ccccc4)n3n2)c1  NOT MET
2  Cc1nn(C)c(C(=O)Sc2ccc(OC(F)(F)F)cc2)c1[N+](=O)[O-]  NOT MET

Task item: Hello, I'm reviewing records and need to know if normalized growth of Cc1c(C(=O)Sc2ccc(F)cc2F)sc2nc(C(F)(F)F)nn12 is below 0.9. Could you check?
Reply: MET

Task item: Identify whether the compound CC(C)c1ccc(COC(=O)Nc2ccc(CSc3ccc(Cl)cc3)o2)cc1 records normalized growth below 0.9.
Reply: NOT MET

Task item: Does the reported normalized growth of O=C(/C=C/c1ccc2c(c1)OCO2)Nc1ccc(Br)cc1 stay below 0.9?
Reply: NOT MET

* * *

Field: normalized growth. Provide a value for each of the compounds that follow.
Assay: chemical genetic growth profiling, strain panel (AID 1159580);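 further: tested at 20 µM; growth read once vehicle control cultures reached saturation at 30 °C; 1 = growth at the plate median or of vehicle wells; lower values mean less growth of the strain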
Conditions: S. cerevisiae deletion strains, growth OD, locus YPR119W, strain clb2, stronger effect = lower value
Among all 5,500 compounds or so, about 2,000 (36%) were called active. Not shown: some 18% with an inconclusive outcome. The list shows a part of the results.
Numbers only.

Compound	normalized growth
CN1C2CCC1CC(OC(c1ccccc1)c1ccccc1)C2 (stereo not drawn)	0.973
CC[C@H]1OC(=O)[C@H](C)[C@@H](O[C@H]2C[C@@](C)(OC)[C@@H](O)[C@H](C)O2)[C@H](C)[C@@H](O[C@@H]2O[C@H](C)C[C@H](N(C)C)[C@H]2O)[C@](C)(OC)C[C@@H](C)C(=O)[C@H](C)[C@@H](O)[C@]1(C)O	0.975
CC(=O)O[C@H]1C[C@@H](OC(C)=O)C(C)(C)C2CC(=O)[C@]3(C)C(CC[C@@]4(C)[C@H](C(=O)O)OC(=O)C5OC543)[C@]21C (stereo partly drawn)	0.994
C[C@@H]1O[C@@H](O[C@H]2[C@H](Oc3cc(O)c4c(=O)cc(-c5ccc(O)cc5)oc4c3)O[C@H](CO)[C@@H](O)[C@@H]2O)[C@H](O)[C@H](O)[C@H]1O	0.978
O=C1NCC2(CCN(CCc3ccccc3)CC2)O1	1
CNC(=O)O/N=C(\C)SC	0.985

For each of the compounds below, state normalized growth.
1. C=CCc1ccc(OC(=O)c2ccccc2)c(OC)c1
2. CC[C@@H](C(=O)C(C)[C@@H](O)[C@H](C)CCc1ccc(C)c(O)c1C(=O)O)C1OC(CC)(C2CC[C@](O)(CC)[C@H](C)O2)C[C@@H]1C (stereo partly drawn)

Reply:
0.971
1.05

* * *

Please go through the items and note down their normalized growth.
Test: chemical genetic growth profiling, strain panel (AID 1159580);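 further: tested at 20 µM; growth read once vehicle control cultures reached saturation at 30 °C; 1 = growth at the plate median or of vehicle wells; lower values mean less growth of the strain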
Details: S. cerevisiae deletion strains, growth OD, locus YLR258W, strain gsy2, stronger effect = lower value
Out of some 5,500 compounds screened, about 2,000 (36%) were called active. Inconclusive results (about 18%) are left out. The list shows a part of the results.
Give bare numbers.

Below: 5 compounds and their reported normalized growth.
Compound	Assay value
CC[C@]1(O)CC2CN(CCc3c([nH]c4ccccc34)[C@@](C(=O)OC)(c3cc4c(cc3OC)N(C)[C@H]3[C@@](O)(C(=O)OC)[C@H](OC(C)=O)[C@]5(CC)C=CCN6CC[C@]43[C@@H]65)C2)C1 (stereo partly specified)	0.979
CC[C@@]1(O)C[C@H](O[C@H]2C[C@H](N(C)C)[C@H](O)[C@H](C)O2)c2c(cc3c(c2O)C(=O)c2c(O)ccc(O)c2C3=O)[C@H]1C(=O)OC	0.905
COc1ccc([C@H]2Oc3c(I)c(OC)cc(OC)c3C[C@@H]2O)cc1OC	1
Nc1nc(=S)c2[nH]cnc2[nH]1	0.961
COc1ccc2c(c1)OC1(O)COc3cc(OC)c(OC)cc3C1=C2 (stereo unspecified)	0.986

Task item: Please look at this compound and report its normalized growth: CCC(C)C(=O)O[C@@H]1C[C@@]2(C)[C@H](c3ccoc3)OC(=O)CC23OC2(C)O[C@]14[C@]1(C)[C@@H](CC(=O)OC)C5(C)CC1(O)[C@](O)(C5OC(=O)C1(C)OC1C)[C@@H](OC(C)=O)[C@]34O2 (stereo partly specified)
Reply: 0.988
